B1: MMP1 (parent)
chain: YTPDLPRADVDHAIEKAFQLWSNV

Variants of: B1
experiment summary: protein stability index of a GFP-peptide fusion (GPS, HEK-293T) (PSI 1-6); higher = more stable;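 further: lentivirally expressed fusions sorted by FACS into six bins by GFP to DsRed ratio, PSI derived from sequencing read proportions per bin multiplied by bin number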
measurement parameters: c terminus: a fixed tail appended
Please note: t applies when protein stability index is 2 or greater, and f applies otherwise.

Below, 6 variants whose answers are already recorded.
>>> group_label("YTPLLPRADVDHAIEKAFQLWSNV [D4L]")
"t"
>>> group_label("YTPDLPRADVDHAIEKAQQLWSNV [F18Q]")
"f"
>>> group_label("YTPDLPRADVDHAIEKAFQDWSNV [L20D]")
"t"
>>> group_label("CTPDLPRADVDHAIEKAFQLWSNV [Y1C]")
"t"
>>> group_label("YTPDLPQADVDHAIEKAFQLWSNV [R7Q]")
"f"
>>> group_label("YTPDLPRNDVDHAIEKAFQLWSNV [A8N]")
"f"

Input: State whether the measured protein stability index reaches 2, counting equality as reaching it, for YPPDLPRADVDHAIEKAFQLWSNV [T2P]
Output: t
